- test_details: Pharmacokinetic study of 157 (and metabolite endothal) in SD rats, iv and po; plasma, liver, brain
- Format: in vivo
- setup_conditions: female, Sprague-Dawley (SD), rat, in vivo, iv, 1.5 mg/kg, iv 1.5 mg/kg, 1 hr, Rat 2; read-out: 157 plasma concentration
quantity: concentration at 1 h (ng/mL)
I only need the number, in ng/mL, no unit after it.

Query: Quick one: concentration at 1 h for CCCCCCCOC(=O)C1C2CCC(O2)C1C(=O)N1CCN(C)CC1 (stereo not shown) [Compound 157] ?
Response: 3.57

---

- test_details: Pharmacokinetic study of 157 (and metabolite endothal) in SD rats, iv and po; plasma, liver, brain
- Format: in vivo
- setup_conditions: female, SD, rat, in vivo, iv, 1.5 mg/kg, iv 1.5 mg/kg, 0.25 hr, Rat 1; read-out: 157 brain concentration
quantity: concentration at 0.25 h (ng/g)
I only need the number, in ng/g, no unit after it.

Query: Quick one: concentration at 0.25 h for CCCCCCCOC(=O)C1C2CCC(O2)C1C(=O)N1CCN(C)CC1 (stereo not shown) [Compound 157] ?
Response: 60

---

- test_details: in vivo
- setup_conditions: female, Sprague-Dawley (SD), rat, in vivo, iv, 0.5 mg/kg, 100 plasma concentration
quantity: concentration at 2 h

Query: Quick one: concentration at 2 h for CN1CCN(C(=O)C2C3CCC(O3)C2C(=O)O)CC1 (stereo not shown) ?
Response: 22.6 ng/mL

---

- test_details: Pharmacokinetic study of 153 (and metabolite endothal) in SD rats, iv and po; plasma, liver, brain
- Assay type: in vivo
- setup_conditions: female, SD, rat, in vivo, iv, 1.25 mg/kg, 153 in plasma, IV 1.25 mg/kg, Mean; read-out: Cmax
- Method: The blood, liver and brain tissue samples were collected at predetermined times from rats. […] Compound were diluted shortly before use in 4% sodium bicarbonate for sterile injection (this is the standard pediatric solution of NaHCO3 with a pH of about 8.5). Compound 153 was freshly prepared by diluting the drugs shortly before use in 4% sodium bicarbonate for sterile injection (this is the standard pediatric solution of NaHCO3 with a pH of about 8.5). […]
quantity: Cmax (ng/mL)
I only need the number, in ng/mL, no unit after it.

Query: Quick one: Cmax for CCCOC(=O)C1C2CCC(O2)C1C(=O)N1CCN(C)CC1 (stereo not shown) [Compound 153] ?
Response: 557

---

- test_details: Pharmacokinetic study of 157 (and metabolite endothal) in SD rats, iv and po; plasma, liver, brain
- Type: in vivo
- setup_conditions: female, Sprague-Dawley (SD), rat, in vivo, iv, 1.5 mg/kg, iv 1.5 mg/kg, 2 hr, Rat 1; read-out: 157 liver concentration
quantity: concentration at 2 h (ng/g)
I only need the number, in ng/g, no unit after it.

Query: Quick one: concentration at 2 h for CCCCCCCOC(=O)C1C2CCC(O2)C1C(=O)N1CCN(C)CC1 (stereo not shown) ?
Response: 6.4

---

- test_details: in vivo
- setup_conditions: female, Sprague-Dawley, rat, in vivo, iv, 1 mg/kg, 100 plasma concentration
quantity: concentration at 0.25 h (ng/mL)
I only need the number, in ng/mL, no unit after it.

Query: Quick one: concentration at 0.25 h for CN1CCN(C(=O)C2C3CCC(O3)C2C(=O)O)CC1 (stereo not shown) [Compound 100] ?
Response: 2120

The origin of these recorded values is patent US20160264593A1.
